Tested on: human lung adenocarcinoma cells A549
Assay: Inhibition on the proliferation of tumor cells (CCK8), A549
Format: cell-based
Details: Homo sapiens, A549, 72 h, read-out: A549 IC50
READOUT_TYPE: pIC50
Lab note: report pIC50 as minus log10 of the concentration in molar units, number only.

Using the record for COc1cc2c(Oc3ccc(NC(=O)C4(C(=O)Nc5ccc(F)cc5)CC4)cc3F)ccnc2cc1OCCCN1CCOCC1 [Foretinib, reference compound] , report its pIC50.
5.55

###

Test system: human malignant glioma cells U87MG
Assay: Inhibition on the proliferation of tumor cells (CCK8), U87MG
Assay type: cell-based
Settings: Homo sapiens, U-87 MG, 72 h, read-out: U87MG IC50
READOUT_TYPE: pIC50
Answer as the number alone; pIC50 is minus log10 of concentration in mol/L.

Sample COc1cc2c(Oc3ccc(NC(=O)C4(C(=O)Nc5ccc(F)cc5)CC4)cc3F)ccnc2cc1OCCCN1CCOCC1 [Foretinib, reference compound] — what was its pIC50?
5.78

###

System: human lung adenocarcinoma cells A549
Test: Inhibition on the proliferation of tumor cells (CCK8), A549
Format: cell-based
Details: read-out: A549 IC50
READOUT_TYPE: IC50 (µM)
Record the value in µM, omitting the unit from your answer.

Entry COc1cc2c(Oc3ccc(NC(=O)C4(C(=O)Nc5ccc(F)cc5)CC4)cc3F)ccnc2cc1OC1CC(N2CCOCC2)C1 (stereo not shown) has what IC50?
4.4

###

Target: KDR (Homo sapiens (Human), UniProt P35968)
Sequence (P35968 20-1356): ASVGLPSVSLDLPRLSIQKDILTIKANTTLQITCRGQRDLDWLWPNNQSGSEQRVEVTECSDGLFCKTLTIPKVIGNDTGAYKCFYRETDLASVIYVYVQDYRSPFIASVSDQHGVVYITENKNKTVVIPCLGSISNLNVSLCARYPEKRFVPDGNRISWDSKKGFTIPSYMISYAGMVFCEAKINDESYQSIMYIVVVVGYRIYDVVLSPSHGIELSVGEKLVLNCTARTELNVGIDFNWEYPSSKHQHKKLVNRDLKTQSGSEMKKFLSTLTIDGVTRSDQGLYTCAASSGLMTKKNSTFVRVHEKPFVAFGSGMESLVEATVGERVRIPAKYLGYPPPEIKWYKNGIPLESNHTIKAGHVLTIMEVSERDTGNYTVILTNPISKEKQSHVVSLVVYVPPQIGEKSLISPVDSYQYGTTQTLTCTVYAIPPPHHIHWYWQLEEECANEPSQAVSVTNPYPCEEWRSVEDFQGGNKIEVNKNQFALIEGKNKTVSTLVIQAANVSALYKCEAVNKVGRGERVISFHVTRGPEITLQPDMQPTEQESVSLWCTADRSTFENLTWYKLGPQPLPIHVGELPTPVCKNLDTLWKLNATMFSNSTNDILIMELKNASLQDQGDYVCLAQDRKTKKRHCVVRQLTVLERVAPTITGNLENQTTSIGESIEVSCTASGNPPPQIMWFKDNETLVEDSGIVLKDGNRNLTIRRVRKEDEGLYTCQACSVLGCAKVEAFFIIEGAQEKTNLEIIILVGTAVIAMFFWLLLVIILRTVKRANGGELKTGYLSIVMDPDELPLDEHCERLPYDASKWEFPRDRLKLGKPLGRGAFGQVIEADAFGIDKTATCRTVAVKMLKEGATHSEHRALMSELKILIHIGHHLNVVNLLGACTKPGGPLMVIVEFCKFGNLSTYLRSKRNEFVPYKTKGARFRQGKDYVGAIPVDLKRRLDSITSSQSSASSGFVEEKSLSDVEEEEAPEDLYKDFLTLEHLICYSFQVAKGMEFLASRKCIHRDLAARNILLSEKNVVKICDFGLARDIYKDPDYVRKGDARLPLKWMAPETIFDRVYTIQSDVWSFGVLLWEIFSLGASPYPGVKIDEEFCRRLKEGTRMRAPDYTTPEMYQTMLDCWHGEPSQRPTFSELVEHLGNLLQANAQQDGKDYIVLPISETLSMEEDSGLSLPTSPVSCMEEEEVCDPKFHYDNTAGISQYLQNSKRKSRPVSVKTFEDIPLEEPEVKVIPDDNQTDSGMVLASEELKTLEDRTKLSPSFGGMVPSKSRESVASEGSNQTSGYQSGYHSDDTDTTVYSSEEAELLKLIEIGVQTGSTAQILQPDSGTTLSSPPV
READOUT_TYPE: IC50 (µM)
The reply should contain only the number, in µM.

I'm curious: which IC50 was measured for COc1cc2c(Oc3ccc(NC(=O)C4(C(=O)Nc5ccc(F)cc5)CC4)cc3F)ccnc2cc1OC1CC(N2CCOCC2)C1 (centres unmarked) [Compound 10] tested on KDR (Homo sapiens (Human), UniProt P35968)?
0.0642

Next up: COc1cc2c(Oc3ccc(NC(=O)C4(C(=O)Nc5ccc(F)cc5)CC4)cc3F)ccnc2cc1OCC1CC(N2CCOCC2)C1 (centres unmarked) [Compound 5]
0.0399
